Sourced from patent US20260042764A1

target-or-test-system: Avi-KRAS WT (1-169) GppNHp/RAF1 RBD-3xFLAG (52-151) (Homo sapiens, UniProt P01116)
Construct: Avi-KRAS WT (1-169)
Sequence (P01116 1-169 isoform P01116-2): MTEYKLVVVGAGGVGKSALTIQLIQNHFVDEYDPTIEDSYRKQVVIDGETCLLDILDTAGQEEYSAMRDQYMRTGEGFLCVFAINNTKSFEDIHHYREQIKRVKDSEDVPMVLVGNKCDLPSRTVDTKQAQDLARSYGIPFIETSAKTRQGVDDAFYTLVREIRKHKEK
assay-text: Raf1-KRAS WT-GppNHP disruption HTRF assay (Biological Example 1)
Assay type: binding
experimental-parameters: KRAS WT, GppNHp-loaded; Table 11
pIC50: −log10 of the molar value.
measure-name: pIC50

Consider the following illustrative entries.
INSERT INTO results (molecule, recorded_value) VALUES
  ('C[C@@H](CO)N(C)c1nc(OC[C@@]23CCCN2C[C@H](F)C3)nc2c(F)c(-c3ccc(F)c4sc(N)c(C#N)c34)c(C(F)(F)F)cc12', '6.00 to 7.00'),
  ('CC(=O)N1CCN(c2nc(OC[C@@]34CCCN3C[C@H](F)C4)nc3c(F)c(-c4ccc(F)c5sc(N)c(C#N)c45)c(C(F)(F)F)cc23)CC1', '6.00 to 7.00'),
  ('N#Cc1c(N)sc2c(F)ccc(-c3c(C(F)(F)F)cc4c(N5CCCC6(CC(O)C6)C5)nc(OC[C@@]56CCCN5C[C@H](F)C6)nc4c3F)c12 (stereo partly drawn)', '5.00 to 6.00');

Challenge: pIC50 lookup needed for CN(C)c1nc(OC[C@@]23CCCN2C[C@H](F)C3)nc2c(F)c(-c3ccc(F)c4sc(N)c(C#N)c34)c(C(F)(F)F)cc12 , thanks.
Response given: 6.00 to 7.00

Challenge: Try CC1(O)COCCN(c2nc(OC[C@@]34CCCN3C[C@H](F)C4)nc3c(F)c(-c4ccc(F)c5sc(N)c(C#N)c45)c(C(F)(F)F)cc23)C1 (stereo partly drawn) next.
Response given: 6.00 to 7.00

Challenge: Try Nc1nc2c(-c3c(C(F)(F)F)cc4c(N5CC(CO)C5)nc(OCC56CCCN5CCC6)nc4c3F)ccc(F)c2s1 next.
Response given: 5.00 to 6.00

====

target-or-test-system: Avi-KRAS WT (2-169) GTP/RAF1 RBD-3xFLAG (51-131) (Homo sapiens)
Construct: Avi-KRAS WT (2-169)
Sequence (P01116 2-169 isoform P01116-2): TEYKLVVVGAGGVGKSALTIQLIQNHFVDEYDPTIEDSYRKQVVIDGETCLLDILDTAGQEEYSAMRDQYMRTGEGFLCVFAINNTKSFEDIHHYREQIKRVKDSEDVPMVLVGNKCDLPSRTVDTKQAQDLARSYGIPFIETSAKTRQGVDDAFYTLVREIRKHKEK
assay-text: Raf1-KRAS WT-GTP disruption HTRF assay (Biological Example 3)
Type: binding
experimental-parameters: KRAS WT, GTP-loaded
measure-name: IC50

Consider the following illustrative entries.
INSERT INTO results (compound, measure_name, recorded_value) VALUES
  ('CCN(c1nc(OC[C@@]23CCCN2C[C@H](F)C3)nc2c(F)c(-c3ccc(F)c4sc(N)c(C#N)c34)c(C(F)(F)F)cc12)[C@H]1CCN(C(=O)c2ncc(Cl)s2)C1 (atropisomer, axis not shown)', 'IC50', '1000 to 10000 nM'),
  ('CCN(c1nc(OC[C@@]23CCCN2C[C@H](F)C3)nc2c(F)c(-c3ccc(F)c4sc(N)c(C#N)c34)c(C(F)(F)F)cc12)[C@H]1CCN(C(=O)N2CC(F)C2)[C@H]1C (atropisomer, axis not shown)', 'IC50', '1000 to 10000 nM'),
  ('CN(Cc1ccno1)c1nc(OC[C@@]23CCCN2C[C@H](F)C3)nc2c(F)c(-c3ccc(F)c4sc(N)c(C#N)c34)c(C(F)(F)F)cc12 (atropisomer, axis not shown)', 'IC50', '1000 to 10000 nM'),
  ('CN(Cc1cnoc1)c1nc(OC[C@@]23CCCN2C[C@H](F)C3)nc2c(F)c(-c3ccc(F)c4sc(N)c(C#N)c34)c(C(F)(F)F)cc12 (atropisomer, axis not shown)', 'IC50', '100 to 1000 nM'),
  ('N#Cc1c(N)sc2c(F)ccc(-c3c(C(F)(F)F)cc4c(N5CCCOCC5)nc(OC[C@@]56CCCN5C[C@H](F)C6)nc4c3F)c12', 'IC50', '100 to 1000 nM');

Challenge: IC50 lookup needed for CO[C@H](C)C(=O)N1CC[C@H](N(c2nc(OC[C@@]34CCCN3C[C@H](F)C4)nc3c(F)c(-c4ccc(F)c5sc(N)c(C#N)c45)c(C(F)(F)F)cc23)C2CC2)C1 (atropisomer, axis not shown) , thanks.
Response given: 1000 to 10000 nM

Challenge: Try CCN(c1nc(OC[C@@]23CCCN2C[C@H](F)C3)nc2c(F)c(-c3ccc(F)c4sc(N)c(C#N)c34)c(C(F)(F)F)cc12)[C@H]1C[C@H]2CN(C3COC3)C(=O)N2C1 (atropisomer, axis not shown) next.
Response given: 100 to 1000 nM

Challenge: Try CCN(c1nc(OC[C@@]23CCCN2C[C@H](F)C3)nc2c(F)c(-c3ccc(F)c4sc(N)c(C#N)c34)c(C(F)(F)F)cc12)[C@H]1CCN(C(=O)c2ccon2)C1 (atropisomer, axis not shown) next.
Response given: 100 to 1000 nM

Challenge: Try CCN(c1nc(OC[C@@]23CCCN2C[C@H](F)C3)nc2c(F)c(-c3ccc(F)c4sc(N)c(C#N)c34)c(C(F)(F)F)cc12)[C@H]1C[C@H](C)N(C(=O)C2C[C@@H]2F)C1 (stereo partly drawn) next.
Response given: 100 to 1000 nM
